# Test system: Plasmodium berghei
# experiment.notes: Luciferase/luciferin-expressing antifolate-resistant parasites were used to infect a culture of HepG2 cells that were pre-incubated with compounds. Infected hepatocytes emit light due to the luciferase reaction. Assay results are presented as the percent inhibition of light emission compared to control. […]
# Format: functional
# setup.conditions: sporozoite, PBLUC_HILL_SLOPE 109, PBLUC_R_SQUARED 0.523, read-out: LUCIFERASE INFECTION ASSAY - IC50
property.measured: IC50 (µM)
Entry rule: numbers only, all in µM.

Input line: Identify IC50 associated with the compound CNc1snc(C)c1C(=O)OCCCOC(=O)c1c(C)nsc1NC
Output line: 6.54
